Consider the following compounds and their measured glomerular width readings.
# Tested on: Danio rerio Tg(wt1b:EGFP) embryo, pronephros
# Experiment description: glomerular width (mean of left and right), fold change vs DMSO control; higher = wider glomerulus
# Experimental context: 25 µM; exposure: 24-48 hpf
Structures can show the parent of a compound that is named as a salt.
Response field accepts a number only; no unit should be typed.

Recorded results for 5 compounds are shown here.
O=C(c1ccccc1)c1ccc2n1CCC2C(=O)O (stereo unspecified): 1.15
CO[C@H]1/C=C/O[C@@]2(C)Oc3c(C)c(O)c4c(O)c(c(/C=N/N5CCN(C6CCCC6)CC5)c(O)c4c3C2=O)NC(=O)/C(C)=C\C=C\[C@H](C)[C@H](O)[C@@H](C)[C@@H](O)[C@@H](C)[C@H](OC(C)=O)[C@@H]1C: 0.985
CCCC1C(=O)N2C(N(C)C)=Nc3ccc(C)cc3N2C1=O (stereo unspecified): 0.984
CC(C)(C(=O)O)c1ccc(C(O)CCCN2CCC(C(O)(c3ccccc3)c3ccccc3)CC2)cc1 (stereo unspecified) [Fexofenadine hydrochloride]: 1.12
COc1cc2c(cc1OC)C(=O)C(CC1CCN(Cc3ccccc3)CC1)C2 (stereo unspecified) [Donepezil hydrochloride]: 1.13

Report glomerular width for COC(=O)C1=C(C)NC(C)=C(C(=O)OC2CCCN(Cc3ccccc3)C2)C1c1cccc([N+](=O)[O-])c1 (stereo unspecified) [Benidipine hydrochloride] please.
0.7

Look up glomerular width: Cc1ccnc(NS(=O)(=O)c2ccc(N)cc2)n1
1.03

# glomerular width lookup, item O=C(O)COCCN1CCN(C(c2ccccc2)c2ccc(Cl)cc2)CC1 (stereo unspecified) [Cetirizine dihydrochloride]
1.09

Look at this compound and give its reported glomerular width. C#C[C@]1(O)CC[C@H]2[C@@H]3[C@H](C)CC4=C(CCC(=O)C4)[C@H]3CC[C@@]21C
0.908

Could you share which glomerular width value was measured for C[N+](C)(CCOc1ccccc1)Cc1ccccc1.O=C([O-])c1cc2ccccc2cc1O [Bephenium hydroxynaphthoate] ?
0.996

Which glomerular width reading was recorded for the compound CCC(=O)O[C@@H](O[P@](=O)(CCCCc1ccccc1)CC(=O)N1C[C@H](C2CCCCC2)C[C@H]1C(=O)O)C(C)C ?
1.01

Can you share its glomerular width? I mean this compound: CCCc1ncc(C[n+]2ccccc2C)c(N)n1 [Amprolium hydrochloride]
0.936

# input compound: O=C1C(O)=C([C@H]2CC[C@H](c3ccc(Cl)cc3)CC2)C(=O)c2ccccc21 ; wanted: its glomerular width
0.992

For the compound shown here, C=CCOC(Cn1ccnc1)c1ccc(Cl)cc1Cl (stereo unspecified) , give the reported glomerular width.
1.12

Fill in the blank: the reported glomerular width of c1ccc2c(c1)CCCC2C1=NCCN1 (stereo unspecified) [Tetrahydrozoline hydrochloride] is ____.
1.06

Reported glomerular width for CC[C@H]1OC(=O)[C@H](C)[C@@H](O[C@H]2C[C@@](C)(OC)[C@@H](O)[C@H](C)O2)[C@H](C)[C@@H](O[C@@H]2O[C@H](C)C[C@H](N(C)C)[C@H]2O)[C@](C)(O)C[C@@H](C)/C(=N\OCOCCOC)[C@H](C)[C@@H](O)[C@]1(C)O : what is it?
1

Which value of glomerular width has been reported for CC/C(=C(\c1ccccc1)c1ccc(OCCN(C)C)cc1)c1ccccc1 [Tamoxifen citrate] in the records?
0.977

I'd like to know its glomerular width. The compound in question is CCCOc1ccccc1-c1nc2[nH]nnc2c(=O)[nH]1
0.99

Given C[C@H](N)[C@H](O)c1cccc(O)c1 [Metaraminol bitartrate] , state its recorded glomerular width.
0.961

Would you kindly share the measured glomerular width for Cc1cc(-n2c(=O)[nH]c(=O)n(C)c2=O)ccc1Oc1ccc(SC(F)(F)F)cc1 ?
0.869

Tell me the measured glomerular width of CC[N+](C)(C)c1cccc(O)c1 [Edrophonium chloride] , please.
1.03

Consider the compound shown here: CC[C@H](C)C(=O)O[C@H]1C[C@@H](C)C=C2C=C[C@H](C)[C@H](CC[C@@H]3C[C@@H](O)CC(=O)O3)[C@H]21 What is its recorded glomerular width?
0.622
